procedure.summary: Half life in Sprague-Dawley rat at 10 mg/kg, po
Assay type: ADME, organism-based
Parameters: dose 10 mg/kg, route oral
applied.conditions: in vivo
parameter: half-life (h)
Answers are plain numbers, in h.

1) COC(=O)C(CCC(=O)N(C)CCCc1nc2ccccc2[nH]1)(c1ccc(Br)cc1)C(C)C (configuration not stated) :: 0.795

Return half-life (reported value) for this compound: COC(=O)C(CCC(=O)N1CCN(c2ccccc2OC)CC1)(c1ccc(Br)cc1)C(C)C (configuration not stated) 2.21

###

procedure.summary: AUC (0 to infinity) in Sprague-Dawley rat at 10 mg/kg, iv
Type: ADME, organism-based
Set-up: time infinity, dose 10 mg/kg, route intravenous
applied.conditions: plasma
parameter: AUC(0-inf) (ng·h/mL)
Answers are plain numbers, in ng·h/mL.

Please review the following examples before continuing.
1. COC(=O)C(CCC(=O)N1CCN(c2ccccc2OC)CC1)(c1ccc(Br)cc1)C(C)C (stereo not drawn) :: 5080
2. COC(=O)C(CCCN(C)CCCc1nc2ccccc2[nH]1)(c1ccc(Br)cc1)C(C)C (stereo not drawn) :: 906

Read the next record carefully.
Return AUC(0-inf) (reported value) for this compound: COC(=O)C(CCC(=O)N(C)CCCc1nc2ccccc2[nH]1)(c1ccc(Br)cc1)C(C)C (stereo not drawn) 9620

###

procedure.summary: Cmax in Sprague-Dawley rat at 10 mg/kg, po
Type: ADME, organism-based
Design: dose 10 mg/kg, route oral
applied.conditions: in vivo
Could you please report measured Cmax for the items listed next?
Numbers only, in ng/mL.

1. COC(=O)C(CCC(=O)N1CCN(c2ccccc2OC)CC1)(c1ccc(Br)cc1)C(C)C (configuration not stated) :: 218

Read the next record carefully.
Return Cmax (reported value) for this compound: COC(=O)C(CCC(=O)N(C)CCCc1nc2ccccc2[nH]1)(c1ccc(Br)cc1)C(C)C (configuration not stated) 4580
